Test details: Inhibition of human DNA polymerase alpha by scintillation proximity assay
Recorded measurements of IC50, one per entry

molecule=CN(Cc1cc2c(=O)c(C(=O)NCc3cccc(Cl)c3)cn(C)c2s1)C[C@@H](O)c1ccccn1 observed_value="> 40 µM"

Here's the next entry for you.
Which value of IC50 has been reported for `CN(Cc1cc2c(=O)c(C(=O)NCc3ccc(Cl)cc3)cn(C)c2s1)C[C@@H](O)c1cnccn1` in the records?
> 40 µM

----------
Test details: Inhibition of HSV1 DNA polymerase by scintillation proximity assay
Set-up: species or system Human alphaherpesvirus 1
pIC50: −log10 of the molar value.
Value kind: pIC50

Below, each entry is followed by its recorded pIC50 result.
molecule=CN(Cc1cc2c(=O)c(C(=O)NCc3cccc(Cl)c3)cn(C)c2s1)C[C@@H](O)c1ccccn1 value_kind=pIC50 observed_value=7.12
molecule=CN(Cc1cc2c(=O)c(C(=O)NCc3ccc(Cl)cc3)cn(C)c2s1)C[C@H](O)c1ccccc1 value_kind=pIC50 observed_value=4.98

[1] CN(Cc1cc2c(=O)c(C(=O)NCc3ccc(Cl)cc3)cn(C)c2s1)C[C@@H](O)c1ccccc1
[2] CN(Cc1cc2c(=O)c(C(=O)NCc3ccc(Cl)cc3)cn(C)c2s1)C[C@@H](O)c1cnccn1
Hi, I'm comparing 1 with 2 and wondering which one has the bigger number for pIC50. Any idea? API: response body contains the label of the selected item.
2

----------
Measurement target: DNA polymerase catalytic subunit (Human cytomegalovirus (strain AD169) (HHV-5) (Human herpesvirus 5))
Sequence (P08546 whole entry): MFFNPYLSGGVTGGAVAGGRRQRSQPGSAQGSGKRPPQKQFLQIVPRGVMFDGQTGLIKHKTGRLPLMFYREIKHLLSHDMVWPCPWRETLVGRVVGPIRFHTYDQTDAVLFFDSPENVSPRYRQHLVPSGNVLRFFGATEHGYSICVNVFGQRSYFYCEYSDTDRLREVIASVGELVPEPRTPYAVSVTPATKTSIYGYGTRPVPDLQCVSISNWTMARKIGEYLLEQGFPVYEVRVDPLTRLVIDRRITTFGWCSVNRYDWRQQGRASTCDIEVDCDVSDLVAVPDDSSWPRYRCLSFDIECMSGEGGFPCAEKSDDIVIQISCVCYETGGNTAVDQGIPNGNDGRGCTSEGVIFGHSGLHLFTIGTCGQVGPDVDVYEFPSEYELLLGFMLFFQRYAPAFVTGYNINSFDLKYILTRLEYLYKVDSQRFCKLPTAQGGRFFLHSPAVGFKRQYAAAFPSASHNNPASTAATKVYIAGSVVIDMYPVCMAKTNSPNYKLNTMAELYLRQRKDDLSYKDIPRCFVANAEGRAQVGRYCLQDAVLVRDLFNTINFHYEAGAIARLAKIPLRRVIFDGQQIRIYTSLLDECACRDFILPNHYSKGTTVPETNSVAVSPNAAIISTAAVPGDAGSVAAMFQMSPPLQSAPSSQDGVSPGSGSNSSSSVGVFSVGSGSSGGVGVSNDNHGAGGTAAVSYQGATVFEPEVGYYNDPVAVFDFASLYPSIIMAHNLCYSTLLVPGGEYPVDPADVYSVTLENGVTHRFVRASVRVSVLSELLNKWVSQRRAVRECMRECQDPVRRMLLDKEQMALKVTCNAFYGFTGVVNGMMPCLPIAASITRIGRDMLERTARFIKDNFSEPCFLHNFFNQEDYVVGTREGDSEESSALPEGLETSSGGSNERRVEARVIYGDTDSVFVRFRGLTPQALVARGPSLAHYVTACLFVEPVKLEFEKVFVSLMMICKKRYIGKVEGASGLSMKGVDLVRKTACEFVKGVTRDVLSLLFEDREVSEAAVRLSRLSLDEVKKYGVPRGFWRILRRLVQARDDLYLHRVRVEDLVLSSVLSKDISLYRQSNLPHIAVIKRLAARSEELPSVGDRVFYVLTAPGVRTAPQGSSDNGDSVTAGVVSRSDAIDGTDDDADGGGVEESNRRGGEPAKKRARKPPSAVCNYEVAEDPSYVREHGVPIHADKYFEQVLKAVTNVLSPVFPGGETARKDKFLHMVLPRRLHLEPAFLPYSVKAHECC
Test details: Inhibition of HCMV DNA polymerase by scintillation proximity assay
Set-up: species or system Human betaherpesvirus 5
pIC50: −log10 of the molar value.
Value kind: pIC50

Below, each entry is followed by its recorded pIC50 result.
molecule="CN(Cc1cc2c(=O)c(C(=O)NCc3ccc(Cl)cc3)cn(C)c2s1)CC(O)c1ccc2ccccc2n1 (centres undefined)" observed_value=7.19
molecule="CN(Cc1cc2c(=O)c(C(=O)NCc3ccc(Cl)cc3)cn(C)c2s1)CC(O)c1ccncc1 (centres undefined)" observed_value=6.70

[A] CN(Cc1cc2c(=O)c(C(=O)NCc3ccc(Cl)cc3)cn(C)c2s1)CC(O)c1cc2ccccc2o1 (centres undefined)
[B] Cn1cc(C(=O)NCc2ccc(Cl)cc2)c(=O)c2cc(CNCC(O)c3ccccc3)sc21 (centres undefined)
[C] CN(Cc1cc2c(=O)c(C(=O)NCc3cccc(Cl)c3)cn(C)c2s1)CC(O)c1cccnc1 (centres undefined)
[D] CN(Cc1cc2c(=O)c(C(=O)NCc3ccc(Cl)cc3)cn(C)c2s1)CC(O)c1ccco1 (centres undefined)
Rank entries according to their pIC50, from the largest number down. Reply with the labels, ordered as the question asks.
A, D, C, B

----------
Recorded measurements of pIC50, one per entry
Test details: Inhibition of human DNA polymerase delta by scintillation proximity assay
pIC50: −log10 of the molar value.

molecule=CN(Cc1cc2c(=O)c(C(=O)NCc3ccc(Cl)cc3)cn(C)c2s1)C[C@@H](O)c1cnccn1 observed_value="< 4.40"

Here's the next entry for you.
Which value of pIC50 has been reported for `CN(Cc1cc2c(=O)c(C(=O)NCc3cccc(Cl)c3)cn(C)c2s1)C[C@@H](O)c1ccccn1` in the records?
< 4.40

----------
Test details: Inhibition of VZV DNA polymerase by scintillation proximity assay
Parameters: species or system Human alphaherpesvirus 3
Value kind: IC50 (nM)

molecule=CN(Cc1cc2c(=O)c(C(=O)NCc3cccc(Cl)c3)cn(C)c2s1)C[C@@H](O)c1ccccn1 observed_value=21
molecule=CN(Cc1cc2c(=O)c(C(=O)NCc3ccc(Cl)cc3)cn(C)c2s1)C[C@H](O)c1ccccc1 observed_value=5000

[P] CN(Cc1cc2c(=O)c(C(=O)NCc3ccc(Cl)cc3)cn(C)c2s1)C[C@@H](O)c1ccccc1
[Q] CN(Cc1cc2c(=O)c(C(=O)NCc3ccc(Cl)cc3)cn(C)c2s1)C[C@@H](O)c1cnccn1
Hi, I'm comparing P with Q and wondering which one has the bigger number for IC50. Any idea? API: response body contains the label of the selected item.
P

----------
Measurement target: DNA polymerase catalytic subunit (Human cytomegalovirus (strain AD169) (HHV-5) (Human herpesvirus 5), UniProt P08546)
Test details: Inhibition of HCMV DNA polymerase by scintillation proximity assay
Parameters: species or system Human betaherpesvirus 5
pIC50: −log10 of the molar value.
Value kind: pIC50

compound="CN(Cc1cc2c(=O)c(C(=O)NCc3ccc(Cl)cc3)cn(C)c2s1)CC(O)c1nccs1 (stereo not drawn)" value_kind=pIC50 observed_value=6.63

[1] CC(C)C(O)CN(C)Cc1cc2c(=O)c(C(=O)NCc3ccc(Cl)cc3)cn(C)c2s1 (stereo not drawn)
[2] CN(Cc1cc2c(=O)c(C(=O)NCc3ccc(Cl)cc3)cn(C)c2s1)CC(O)c1ccoc1 (stereo not drawn)
Hi, I'm comparing 1 with 2 and wondering which one has the bigger number for pIC50. Any idea? API: response body contains the label of the selected item.
2

Provenance of the data: ChEMBL document CHEMBL1139940
